- TGT: Sko1 (UniProt Q02100)
- Sequence: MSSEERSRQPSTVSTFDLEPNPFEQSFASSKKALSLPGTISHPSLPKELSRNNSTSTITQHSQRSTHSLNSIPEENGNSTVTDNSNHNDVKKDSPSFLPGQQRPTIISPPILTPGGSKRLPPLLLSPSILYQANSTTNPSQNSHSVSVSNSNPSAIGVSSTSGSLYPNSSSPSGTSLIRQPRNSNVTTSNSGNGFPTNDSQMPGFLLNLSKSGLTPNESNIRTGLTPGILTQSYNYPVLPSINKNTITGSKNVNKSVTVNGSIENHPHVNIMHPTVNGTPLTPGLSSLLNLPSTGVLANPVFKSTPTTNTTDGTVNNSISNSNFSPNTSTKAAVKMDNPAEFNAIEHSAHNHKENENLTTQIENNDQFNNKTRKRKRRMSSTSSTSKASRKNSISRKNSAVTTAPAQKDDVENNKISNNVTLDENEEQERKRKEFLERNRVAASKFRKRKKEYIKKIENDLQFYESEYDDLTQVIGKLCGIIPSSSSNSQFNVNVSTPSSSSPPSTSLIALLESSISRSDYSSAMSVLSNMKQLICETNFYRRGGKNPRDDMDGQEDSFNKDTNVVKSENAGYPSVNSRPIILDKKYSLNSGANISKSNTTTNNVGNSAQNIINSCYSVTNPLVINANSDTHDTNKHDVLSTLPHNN
- TEST_PROTOCOL: PBM E-score (8-mer binding enrichment) (E-score (-0.5 to 0.5)); higher = stronger / more preferred TF binding
- REPORTED_CONDITIONS: protein concentration: 200 nM; construct: GST-full length
Whole data set: some 33,000 sequences, median “E-score (-0.5 to 0.5)” near -0.032, cut for the highest 2% near 0.36. The full list was thinned out, with the highest values kept by preference.
Lab note: anything with PBM E-score at or over 0.06 counts as Y; the rest go in N.

Check the entry ATCGAAGG : does PBM E-score equal or exceed 0.06?
N

Check the entry ACGCCATG : does PBM E-score equal or exceed 0.06?
Y

Check the entry ACGCCATA : does PBM E-score equal or exceed 0.06?
Y

---

- TGT: Sko1 (UniProt Q02100)
- Sequence: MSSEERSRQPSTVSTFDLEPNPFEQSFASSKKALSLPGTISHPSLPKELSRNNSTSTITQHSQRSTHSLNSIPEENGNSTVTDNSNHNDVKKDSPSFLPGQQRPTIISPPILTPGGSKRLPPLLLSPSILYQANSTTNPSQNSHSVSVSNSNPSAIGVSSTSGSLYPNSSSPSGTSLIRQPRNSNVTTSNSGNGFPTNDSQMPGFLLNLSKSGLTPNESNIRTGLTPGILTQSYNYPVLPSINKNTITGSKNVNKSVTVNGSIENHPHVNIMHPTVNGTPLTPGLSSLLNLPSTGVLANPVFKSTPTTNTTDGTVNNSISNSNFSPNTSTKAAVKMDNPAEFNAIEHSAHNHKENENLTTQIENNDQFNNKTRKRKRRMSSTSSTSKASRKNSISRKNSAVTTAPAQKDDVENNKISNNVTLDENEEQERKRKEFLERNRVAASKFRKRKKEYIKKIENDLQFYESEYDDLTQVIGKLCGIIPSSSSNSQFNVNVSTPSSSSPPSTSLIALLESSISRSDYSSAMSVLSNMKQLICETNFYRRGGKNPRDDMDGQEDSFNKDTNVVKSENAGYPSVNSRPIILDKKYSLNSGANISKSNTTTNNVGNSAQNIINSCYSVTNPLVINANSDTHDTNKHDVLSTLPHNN
- TEST_PROTOCOL: PBM E-score (8-mer binding enrichment) (E-score (-0.5 to 0.5)); higher = stronger / more preferred TF binding
- REPORTED_CONDITIONS: protein concentration: 200 nM; construct: GST-full length
The full ranking holds about 33,000 sequences; the median of “E-score (-0.5 to 0.5)” is about -0.032, and the highest 2% start at about 0.36. Only a selection was taken, and the highest values are over-represented in it overall.
Lab note: anything with PBM E-score at or over 0.1 counts as label 1; the rest go in label 0.

Here's what some known entries look like.
- CONSTRUCT_SEQUENCE: "GGTAACGA"
  TGT: "Sko1 (UniProt Q02100)"
  GROUP_LABEL: "label 0"
- CONSTRUCT_SEQUENCE: "CTCGTATC"
  TGT: "Sko1 (UniProt Q02100)"
  GROUP_LABEL: "label 0"
- CONSTRUCT_SEQUENCE: "AAGGTATT"
  TGT: "Sko1 (UniProt Q02100)"
  GROUP_LABEL: "label 1"
- CONSTRUCT_SEQUENCE: "CGTAACCC"
  TGT: "Sko1 (UniProt Q02100)"
  GROUP_LABEL: "label 1"

Now take the following sequence into account.
Check the entry CGTAACGC : does PBM E-score equal or exceed 0.1?
label 1

---

- TGT: Sko1 (UniProt Q02100)
- Sequence: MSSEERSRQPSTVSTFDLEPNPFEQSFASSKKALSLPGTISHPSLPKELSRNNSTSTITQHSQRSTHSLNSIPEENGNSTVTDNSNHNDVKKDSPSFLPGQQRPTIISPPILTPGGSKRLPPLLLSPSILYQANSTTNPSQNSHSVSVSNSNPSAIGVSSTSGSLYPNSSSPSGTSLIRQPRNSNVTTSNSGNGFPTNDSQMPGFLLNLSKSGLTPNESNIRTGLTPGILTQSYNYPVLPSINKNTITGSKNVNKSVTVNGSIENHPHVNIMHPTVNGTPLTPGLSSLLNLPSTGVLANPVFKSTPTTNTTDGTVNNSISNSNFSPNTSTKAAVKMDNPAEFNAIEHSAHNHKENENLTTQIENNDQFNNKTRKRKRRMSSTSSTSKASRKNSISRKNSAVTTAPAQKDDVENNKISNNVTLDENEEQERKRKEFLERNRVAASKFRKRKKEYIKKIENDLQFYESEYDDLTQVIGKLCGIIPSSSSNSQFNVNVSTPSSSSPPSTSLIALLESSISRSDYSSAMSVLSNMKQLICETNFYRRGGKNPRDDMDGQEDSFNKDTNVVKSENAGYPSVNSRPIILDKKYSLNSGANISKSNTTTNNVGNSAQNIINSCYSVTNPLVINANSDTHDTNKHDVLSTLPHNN
- TEST_PROTOCOL: PBM E-score (8-mer binding enrichment) (E-score (-0.5 to 0.5)); higher = stronger / more preferred TF binding
- REPORTED_CONDITIONS: protein concentration: 200 nM; construct: GST-full length
Over roughly 33,000 sequences, “E-score (-0.5 to 0.5)” has its median near -0.032; the highest 2% begin near 0.36. What follows is part of a selection rich in the highest values, with near analogues and random picks from the rest.
OBSERVATION_TYPE: PBM E-score

Field: example entries. Status: answers known.
- CONSTRUCT_SEQUENCE: "CATATCCA"
  PBM E-score: -0.129
- CONSTRUCT_SEQUENCE: "CTGTGCTC"
  PBM E-score: 0.0303
- CONSTRUCT_SEQUENCE: "AAACGTAA"
  PBM E-score: 0.462
- CONSTRUCT_SEQUENCE: "CACGTAAC"
  PBM E-score: 0.449
- CONSTRUCT_SEQUENCE: "ATAATTAA"
  PBM E-score: 0.285

Identify the reported PBM E-score for the following entry. AAACGTTA
0.3

Identify the reported PBM E-score for the following entry. GGGCGTAA
-0.0261

Identify the reported PBM E-score for the following entry. CTAATTAC
0.323

---

- TGT: Sko1 (UniProt Q02100)
- Sequence: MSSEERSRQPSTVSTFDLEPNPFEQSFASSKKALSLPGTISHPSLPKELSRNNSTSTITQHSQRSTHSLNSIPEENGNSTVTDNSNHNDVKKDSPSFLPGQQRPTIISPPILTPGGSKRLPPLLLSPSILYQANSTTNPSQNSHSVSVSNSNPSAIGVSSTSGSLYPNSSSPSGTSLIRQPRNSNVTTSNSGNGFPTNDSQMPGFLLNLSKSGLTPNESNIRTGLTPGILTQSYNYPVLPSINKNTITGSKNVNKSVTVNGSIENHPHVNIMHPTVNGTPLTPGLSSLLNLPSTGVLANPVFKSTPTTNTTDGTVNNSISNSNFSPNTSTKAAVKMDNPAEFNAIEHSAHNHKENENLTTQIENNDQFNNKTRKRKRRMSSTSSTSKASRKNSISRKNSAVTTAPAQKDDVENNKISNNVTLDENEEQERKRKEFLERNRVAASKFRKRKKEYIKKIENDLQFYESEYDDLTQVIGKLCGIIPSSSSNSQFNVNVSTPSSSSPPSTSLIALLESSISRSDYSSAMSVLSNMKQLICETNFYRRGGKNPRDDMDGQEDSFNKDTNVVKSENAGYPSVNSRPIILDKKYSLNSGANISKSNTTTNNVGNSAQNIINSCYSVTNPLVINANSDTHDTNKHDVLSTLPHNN
- TEST_PROTOCOL: PBM E-score (8-mer binding enrichment) (E-score (-0.5 to 0.5)); higher = stronger / more preferred TF binding
- REPORTED_CONDITIONS: protein concentration: 200 nM; construct: GST-full length
In all, about 33,000 sequences were measured (“E-score (-0.5 to 0.5)”: median about -0.032, highest 2% from about 0.36 on). The sample holds the highest values, similar sequences and a random draw of the others, so the mix is not that of the screen.
Reported values of PBM E-score for individual entries
Reply briefly: the number, and no unit.

Field: example entries. Status: answers known.
- CONSTRUCT_SEQUENCE: "GCGGTCCA"
  PBM E-score: -0.323
- CONSTRUCT_SEQUENCE: "ACGTAGCC"
  PBM E-score: 0.388
- CONSTRUCT_SEQUENCE: "CGTGGTTC"
  PBM E-score: 0.0129
- CONSTRUCT_SEQUENCE: "ATAATACC"
  PBM E-score: 0.138
- CONSTRUCT_SEQUENCE: "AGGTACCT"
  PBM E-score: -0.19

Identify the reported PBM E-score for the following entry. GGTAAATA
0.0846

Identify the reported PBM E-score for the following entry. ATGTATGG
0.0987

Identify the reported PBM E-score for the following entry. CCTCACAG
-0.175

Identify the reported PBM E-score for the following entry. ACGTATGA
0.473

Identify the reported PBM E-score for the following entry. AGCTGTGG
-0.296
